The origin of these recorded values is patent US20260365670A1.

Target: EGFR[T790M/C797S/L858R] (Homo sapiens, UniProt P00533, C797S/L858R/T790M)
Construct: purchased Carna Bio
Sequence (P00533 25-1210 T790M/C797S/L858R): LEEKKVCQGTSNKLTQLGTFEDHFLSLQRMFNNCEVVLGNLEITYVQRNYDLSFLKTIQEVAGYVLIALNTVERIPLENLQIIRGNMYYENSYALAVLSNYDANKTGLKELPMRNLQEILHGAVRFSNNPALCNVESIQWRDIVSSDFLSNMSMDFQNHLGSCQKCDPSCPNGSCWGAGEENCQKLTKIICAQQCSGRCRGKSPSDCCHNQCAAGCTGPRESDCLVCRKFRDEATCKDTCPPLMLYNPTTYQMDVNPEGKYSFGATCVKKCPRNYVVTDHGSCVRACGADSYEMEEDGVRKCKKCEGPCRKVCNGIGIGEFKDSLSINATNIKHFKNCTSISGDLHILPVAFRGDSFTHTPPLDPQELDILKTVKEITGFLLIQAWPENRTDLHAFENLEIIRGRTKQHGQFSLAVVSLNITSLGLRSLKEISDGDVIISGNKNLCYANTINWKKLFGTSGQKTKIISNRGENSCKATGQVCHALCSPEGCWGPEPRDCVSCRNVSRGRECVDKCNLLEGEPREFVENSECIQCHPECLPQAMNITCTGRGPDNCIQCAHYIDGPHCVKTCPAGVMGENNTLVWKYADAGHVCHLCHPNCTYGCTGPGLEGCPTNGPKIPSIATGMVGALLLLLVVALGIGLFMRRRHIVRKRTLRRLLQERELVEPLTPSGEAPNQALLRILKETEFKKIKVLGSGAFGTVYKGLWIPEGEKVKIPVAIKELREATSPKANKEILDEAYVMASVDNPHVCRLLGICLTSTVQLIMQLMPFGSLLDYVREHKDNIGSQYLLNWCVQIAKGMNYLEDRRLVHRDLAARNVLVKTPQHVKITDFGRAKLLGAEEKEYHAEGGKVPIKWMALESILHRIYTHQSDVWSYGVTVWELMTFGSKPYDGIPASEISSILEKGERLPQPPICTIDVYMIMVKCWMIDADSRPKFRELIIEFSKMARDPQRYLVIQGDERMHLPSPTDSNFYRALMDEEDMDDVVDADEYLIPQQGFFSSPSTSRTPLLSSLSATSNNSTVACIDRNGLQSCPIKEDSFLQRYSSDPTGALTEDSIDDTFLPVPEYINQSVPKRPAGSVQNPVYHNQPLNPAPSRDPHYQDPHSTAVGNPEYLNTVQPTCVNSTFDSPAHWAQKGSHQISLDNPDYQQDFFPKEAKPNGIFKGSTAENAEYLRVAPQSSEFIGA
Experiment: Inhibition of EGFR[T790M/C797S/L858R] biochemical enzymatic activity (HTRF)
Details: EGFR T790M-C797S-L858R, 1 mM ATP, 1 h, room temperature, read-out: IC50 (nM) @T790M- C797S - L858R
Reported Endpoint: IC50 (nM)
Supply the numeric figure in nM, leaving out any unit text.

Recorded IC50, per entry:
[[record]]
compound = "CC1CCCCOc2c(cnn2C)-c2cc(cn(C)c2=O)C(=O)Nc2nc3ccc(N4CCN(C)CC4)cc3n21 (stereo not drawn) [Example A19]"
tested_system = "EGFR[T790M/C797S/L858R] (Homo sapiens, UniProt P00533, C797S/L858R/T790M)"
uom = "nM"
obs_value = 214

[[record]]
compound = "C[C@@H]1CCCOc2c(cnn2C)-c2cc(cn(C)c2=O)C(=O)Nc2nc3ccc(N4CC5(CCCN5C)C4)cc3n2C1 [Example A44]"
tested_system = "EGFR[T790M/C797S/L858R] (Homo sapiens, UniProt P00533, C797S/L858R/T790M)"
uom = "nM"
obs_value = 8.8

[[record]]
compound = "Cc1cc2cc(n1)-c1cnn(C)c1OCCN1CCCCC(C1)n1c(nc3ccccc31)NC2=O (stereo not drawn) [Example B4]"
tested_system = "EGFR[T790M/C797S/L858R] (Homo sapiens, UniProt P00533, C797S/L858R/T790M)"
uom = "nM"
obs_value = 532

[[record]]
compound = "CN1CCC2(CC1)CCN(c1ccc3nc4n(c3c1)C13CCC(CC1)CN(CCOc1c(cnn1C)-c1cc(cn(C)c1=O)C(=O)N4)C3)C2 [Example A123]"
tested_system = "EGFR[T790M/C797S/L858R] (Homo sapiens, UniProt P00533, C797S/L858R/T790M)"
uom = "nM"
obs_value = 23

[[record]]
compound = "CN1CCN(C2CCN(c3ccc4nc5n(c4c3)C34CCC(CN(CCOc6c(cnn6C)-c6cc(cn(C)c6=O)C(=O)N5)C3)C4)C2)CC1 (single isomer, unassigned) [Example A80B1]"
tested_system = "EGFR[T790M/C797S/L858R] (Homo sapiens, UniProt P00533, C797S/L858R/T790M)"
uom = "nM"
obs_value = 6.7


Kindly note the recorded IC50 for CN1CC2CN(c3ccc4nc5n(c4c3)C34CCC(CC3)CN(CCOc3c(cnn3C)-c3cc(cn(C)c3=O)C(=O)N5)C4)CC2C1 (stereo not drawn) [Example A126] , which is 52

Kindly note the recorded IC50 for CN(C)C1CN(c2ccc3nc4n(c3c2)C23CCC(CN(CCOc5c(cnn5C)-c5cc(cn(C)c5=O)C(=O)N4)C2)C3)CC1F (single isomer, unassigned) [Example A84D] , which is 4.4

Kindly note the recorded IC50 for C[C@@H]1CCCOc2c(cnn2C)-c2cc(cn(C)c2=O)C(=O)Nc2nc3ccc(N4CC(F)(CN(C)C)C4)cc3n2C1 [Example A58] , which is 22

Kindly note the recorded IC50 for Cn1ncc2c1OCCN1CC3CCC(CC3)(C1)n1c(nc3ccc(N4CCN(C5CC5)CC4)cc31)NC(=O)c1cc-2c(=O)n(C)c1 [Example A128] , which is 33
